Tested on: SN12C renal
testDetails: NCI-60 one-dose screen, 48 h (100 = growth as untreated, 0 = no growth, -100 = all killed)
conditionDescription: 10 µM unless noted
The panel holds about 83,000 compounds, 20% with a hit somewhere; the sample as a whole holds those more often.

{"columns": ["sampleSmiles", "growth (%)"],
 "data": [
  ["COc1ccc2c3c([nH]c2c1)C(=O)c1nc(C)ccc1C3=O", 38.4],
  ["CCOc1nc(-c2ccccc2)cc2c(O)c(C(=O)NN)[nH]c(=O)c12", 109],
  ["N#Cc1c(N)nnn1Cc1cc(=O)oc2c1ccc1ccccc12", 94.2]
]}

###

Test system: 786-0 renal
testDetails: NCI-60 one-dose screen, 48 h
conditionDescription: 10 µM unless noted
This is part of a sample that, as a whole, favours compounds with a hit. Of some 83,000 tested, about 20% had one in any assay. The source made the active and inactive calls. The calls were made as follows: active = growth percent below 10; inactive = the rest.
Outcomes: Y (active), N (inactive)

{"columns": ["molecule", "label"],
 "data": [
  ["Cc1ccc(C2=Nc3c(N)ncnc3NC(c3ccc4c(c3)OCO4)C2)cc1 (configuration not stated)", "N"],
  ["Fc1ccc(-c2nn(-c3ccccc3)cc2-c2nc3ccccc3o2)cc1", "N"],
  ["COC(=O)c1c2c(c(C)[n+]([O-])c1C)C(=O)C=C(NCc1ccc(Br)cc1)C2=O", "Y"],
  ["CCN(CC)CCCN1C(=O)c2c(c(C)c3c(oc4cc(O)ccc43)c2C)C1=O", "Y"],
  ["CCOC(=O)c1c(C)c2c(n1C)CSc1cc(C(=O)c3ccccc3)c(=O)[nH]c1-2", "N"],
  ["Nc1c(C(=O)Nc2ccccc2Cl)sc2nc3c(cc12)C(O)CCC3 (configuration not stated)", "N"],
  ["COc1cc(CNC(=O)/C=C/C=C/c2ccc3c(c2)OCO3)ccc1OCc1cn(-c2ccc(C)c(C)c2)nn1", "N"],
  ["C=CCn1c(SCC(=O)Nc2ccc(C(=O)/C=C/c3ccc(Cl)cc3)cc2)nnc1-c1cc(-c2ccc(S(N)(=O)=O)cc2)nc2ccccc12", "N"],
  ["N#Cc1c(-c2ccc(Cl)cc2)nc(SCC(=O)NC2=NN=C(c3ccccc3)CS2)[nH]c1=O", "N"],
  ["Cc1ccc(-c2nn(-c3ccccc3)cc2C=C2C(=O)ON=C2C(C)C)cc1", "N"],
  ["CS(=O)(=O)Nc1cc(-c2ccc3ncnc(Nc4ccc5c(cnn5Cc5ccccn5)c4)c3c2)cnc1Cl", "N"],
  ["COC(=O)c1cc(-c2ccc(OC)cc2)[nH]c1N/N=C/c1c(Cl)cccc1Cl", "Y"],
  ["CC(=O)[C@@H]1CCC=C2CC[C@]3(C)[C@@H](CC[C@@H]4[C@@]5(C)CCCNC(C)(C)[C@@H]5CC[C@]43C)[C@H]21", "Y"],
  ["CCC(=C(c1ccc(OCCN2CCCC2)cc1)c1ccc(OCCN2CCCC2)cc1)c1ccc(Cl)cc1", "Y"],
  ["CCN(C(=O)N1CCN(c2cc3c(cc2F)c(=O)c(C(=O)O)cn3C2CC2)CC1)c1nc(-c2ccc(Cl)cc2)cs1", "N"],
  ["CCOC(=O)c1[nH]c(=O)c2c(C)nc(-c3ccccc3)cc2c1O", "N"],
  ["CO[C@]12C=C/C(=C(/C(=O)OCc3cccnc3)C(=O)CCCCCCCC[C@@]3(OC)C=C/C(=C(/C(=O)OCc4cccnc4)C(=O)CCCCCCCC1)O3)O2", "Y"],
  ["N#CCSc1nnc2n(Cc3ccccc3)c(=O)c3c4c(sc3n12)CCCC4", "N"],
  ["CCOC(=O)C1=C(NC)OCC1=O", "N"],
  ["CCN(CC)CCOc1ccc(C(=C(C)c2ccc(Cl)cc2)c2ccc(OCCN(CC)CC)cc2)cc1", "Y"],
  ["CC(C)N1CN2C(=S)NC3C2N(C1)C(=S)N3C (configuration not stated)", "N"],
  ["CC(C)=NNc1ccccn1", "N"]
]}
